These entries and their values trace back to PubChem BioAssay (EPA / NIEHS).

# assay text: APR_HepG2_P-H2AX_24hr: Apredica 24-hour HepG2 Assay for H2AX Phosphorylation (AID 2282920)
# reported conditions: high-content imaging, actives raise or lower the signal
The source made the active and inactive calls. How the source made its calls: active means hit-call score of the fitted dose curve at least 0.9, where 1 is the maximum; inactive means score below 0.9.
Outcome codes: TRUE = active, FALSE = inactive

# sample smiles, assigned class
measured = [
    ("COc1ccc(O)c(C(C)(C)C)c1", "FALSE"),
    ("Nc1ccc(-c2ccc(N)cc2)cc1", "TRUE"),
    ("Cc1ccccc1O", "FALSE"),
    ("O=C(O)C(F)(F)C(F)(F)C(F)(F)C(F)(F)C(F)(F)C(F)(F)C(F)(F)C(F)(F)C(F)(F)F", "TRUE"),
    ("O=S(=O)(O)C(F)(F)C(F)(F)C(F)(F)C(F)(F)C(F)(F)C(F)(F)F", "FALSE"),
    ("CC(c1ccc(O)cc1)(c1ccc(O)cc1)c1ccc(O)cc1", "TRUE"),
    ("O=S(=O)(O)C(F)(F)C(F)(F)C(F)(F)C(F)(F)F", "FALSE"),
    ("ClC(Cl)=C(c1ccc(Cl)cc1)c1ccc(Cl)cc1", "TRUE"),
    ("NS(=O)(=O)C(F)(F)C(F)(F)C(F)(F)C(F)(F)C(F)(F)C(F)(F)C(F)(F)C(F)(F)F", "TRUE"),
    ("O=C(NC(=O)c1c(F)cccc1F)Nc1cc(Cl)c(OC(F)(F)C(F)F)c(Cl)c1", "FALSE"),
    ("CCOC(=O)C(O)(c1ccc(Cl)cc1)c1ccc(Cl)cc1", "TRUE"),
    ("N#Cc1ccc(N(CC(N)=O)CC(F)(F)F)cc1C(F)(F)F", "FALSE"),
    ("CCC(C)(CC)c1cc(NC(=O)c2c(OC)cccc2OC)on1", "FALSE"),
    ("c1ccc(-c2ccccc2)cc1", "FALSE"),
    ("ClC1=C(Cl)[C@]2(Cl)[C@@H]3[C@@H](Cl)[C@H]4O[C@H]4[C@@H]3C1(Cl)C2(Cl)Cl", "TRUE"),
    ("Cc1cccc([N+](=O)[O-])c1", "FALSE"),
    ("C=CC(N)=O", "FALSE"),
    ("Nn1cnnc1", "FALSE"),
    ("Oc1ccc(C(c2ccc(O)cc2)(C(F)(F)F)C(F)(F)F)cc1", "FALSE"),
    ("Cc1ccccc1[N+](=O)[O-]", "FALSE"),
    ("CCCCCCCCOC(=O)c1ccccc1C(=O)OCCCCCCCC", "FALSE"),
]

###

# Read-out: growth arrest and DNA damage 45 (GADD45G), GADD45G (gene 10912)
# assay text: LTEA_HepaRG_GADD45G: Life Technologies and Expression Analysis (LTEA) Assay for growth arrest and DNA damage 45 (GADD45G) using HepaRG (AID 2283499)
# reported conditions: mRNA level, 48 h; actives raise or lower the signal
Calls of active or inactive are those of the source. How the source made its calls: active means hit-call score of the fitted dose curve at least 0.9, where 1 is the maximum; inactive means score below 0.9.
Outcome codes: yes = active, no = inactive

# sample smiles, assigned class
data = [
    ("O=C(O)C(F)(F)C(F)(F)C(F)(F)C(F)(F)C(F)(F)F", "no"),
    ("Cc1ccccc1O", "no"),
    ("O=NN(c1ccccc1)c1ccccc1", "no"),
    ("C=CC(N)=O", "no"),
    ("O=C(O)C(F)(F)C(F)(F)C(F)(F)C(F)(F)C(F)(F)C(F)(F)C(F)(F)C(F)(F)F", "yes"),
    ("CC(C)(c1ccccc1)c1ccc(O)cc1", "no"),
]
